tested on: SK-MEL-28 melanoma; assay: NCI-60 one-dose screen, 48 h; details: 10 µM
About 83,000 compounds went through this panel and 20% of them were active in at least one assay; those are over-represented in the sample as a whole. Calls of active or inactive are those of the source. The calls were made as follows: active = growth percent below 10; inactive = the rest.
Mark one answer only. Choices: true for active, false for inactive

Test call for this molecule, please: CC(C)(C)c1ccc(OCCCCCCN2CCNCC2)cc1
false

What outcome does the record of this test show for S=c1c2ncccc2c(-c2ccccn2)nn1Cc1ccccn1 ?
false

# lookup: test call for CCCCCCCCCCCCCCCC(=O)N1CCN(C)CC1
false

What did the test return for CCc1ccc(-c2nnc(COc3ccc(-c4nc5ccc(C)cc5[nH]4)cc3OC)o2)cc1 ?
false

Outcome? Cc1cc(/C=C2\SC(=Nc3ccccc3)N(C3CCCC3)C2=O)c(C)n1-c1ccc(Cl)cc1
true

Could you kindly confirm the outcome this assay logged for C=CCn1c(C)nc2cc(Nc3nc(Nc4ccc5nc(C)n(CC=C)c5c4)c4ccccc4n3)ccc21 ?
true

I'd appreciate the recorded outcome for O=C1/C(=C/c2ccc(O)cc2O)N=C2SCCCN12 from this test.
false

// return assay outcome for COc1cc(-c2nc3ccccc3[nH]2)ccc1OCc1nnc(-c2ccc(Br)cc2)o1
false

Recorded test call requested for COc1ccc2c(=O)cc(C(Cl)(Cl)Cl)oc2c1
true

In this assay, the call recorded for Fc1ccc(Nc2ccnc(N3CCN(c4ccnc5cc(Cl)ccc45)CC3)n2)cc1 was what?
false

Write down the call the test reported for this molecule. Item: O=C(N/N=c1/ccoc2cccnc12)N1CCN(c2ncccn2)CC1
false

Could you check what this test reported for O=c1c2cccc3c(Nc4ccc(Br)cn4)ccc(c32)c2nc3ccccc3n12 ?
false

Record request — test call for COc1cc(CSc2nc3ccc(Cl)cc3c(=O)n2Cc2ccccc2)cc(OC)c1OC
false

Could you please tell me the result logged for COc1cc(/C=C/C(=O)c2cc(-c3ccccc3)ccc2O)cc(OC)c1OC in this assay?
false

Could you check what this test reported for CCOC(=O)c1ccc(NC(=O)Nc2nncs2)cc1 ?
false

Tell me the recorded outcome of this test for Cc1c(C(=O)N[C@H](CO)Cc2ccccc2)[nH]c2ccc(Cl)cc2c1=O .
false

# lookup: test call for COc1cccc(-c2nnc(COc3ccc(-c4nc5ccc(C)cc5[nH]4)cc3OC)o2)c1
false

What outcome does the record of this test show for CC(CNC(Cc1ccccc1)c1ccccc1)NC(Cc1ccccc1)c1ccccc1 (configuration not stated) ?
false

Short answer needed: outcome of this test for Cc1ccc(S(=O)(=O)Oc2ccccc2-c2ccccc2)cc1 ?
false

Hi, sorry to bother you, what did the test record for Nc1ccc(C2=CC(c3ccc(Cl)cc3)N3C=CSC3=N2)cc1 (configuration not stated) ?
true

Query: recorded result category for CCc1ccc(-c2nnc(COc3ccc(-c4nc5ccccc5[nH]4)cc3OC)o2)cc1 in this test
false

Recorded call for CC(=O)CS(C)(=O)=O ?
false

Where do these numbers come from? They come from PubChem BioAssay (NCI).
